This collection of values is drawn from ChEMBL document CHEMBL5107953.

Tested on: Pseudomonas aeruginosa
Experiment: Anti-biofilm activity against Pseudomonas aeruginosa PAO1 harboring wspF gene mutation assessed as reduction on c-di-GMP level by measuring GFP fluorescence at 100 uM incubated for 24 hrs […]
Assay type: functional
Parameters: scale not given: the % may be the effect or the level left
Measured Activity by item
Report only the number, with the unit % understood.

Sample answers from the record:
| compound | tested_system | Activity, % |
| --- | --- | --- |
| N=C1NN=C(N)/C1=N/Nc1ccccc1I | Pseudomonas aeruginosa | 0 |
| N=C1NN=C(N)/C1=N/Nc1c(O)cccc1O | Pseudomonas aeruginosa | 15 |
| N=C1NN=C(N)/C1=N/Nc1cc(F)cc(F)c1 | Pseudomonas aeruginosa | 35 |
| N=C1NN=C(N)/C1=N/Nc1cccc(F)c1 | Pseudomonas aeruginosa | 73 |
| N=C1NN=C(N)/C1=N/Nc1ccccc1O | Pseudomonas aeruginosa | 55 |

Requested read-out: Activity. Entry: `N=C1NN=C(N)/C1=N/Nc1ccccc1N`
0

Requested read-out: Activity. Entry: `N=C1NN=C(N)/C1=N/Nc1cc(Br)cc(Br)c1`
0

Requested read-out: Activity. Entry: `O=C1NNC(=O)C1=NNc1ccccc1F`
0

Requested read-out: Activity. Entry: `N=C1/C(=N\Nc2ccccc2F)C(N)=NN1c1ccc(S(N)(=O)=O)cc1`
0

Requested read-out: Activity. Entry: `N=C1NN=C(N)/C1=N/Nc1cccc(O)c1`
0
